Origin of the recorded values: the supplement of paper PMC10567573

B1: PPFIA4 (parent)
chain: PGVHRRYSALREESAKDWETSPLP

variants of: B1; test: protein stability index of a GFP-peptide fusion (GPS, HEK-293T) (PSI 1-6); higher = more stable; conditions: c terminus: a fixed tail appended;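 note: lentivirally expressed fusions sorted by FACS into six bins by GFP to DsRed ratio, PSI derived from sequencing read proportions per bin multiplied by bin number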
Mark Fulfilled for reported protein stability index of 4 or greater; mark Not fulfilled for anything smaller.

Past entries and their recorded results:
S8E : Fulfilled
P1C : Not fulfilled
A9S : Fulfilled
P24Y : Not fulfilled
T20K : Fulfilled

q: Threshold query (protein stability index >= 4) on `P24E`
a: Fulfilled

q: Threshold query (protein stability index >= 4) on `T20Y`
a: Not fulfilled

q: Threshold query (protein stability index >= 4) on `E12N`
a: Fulfilled

q: Threshold query (protein stability index >= 4) on `R6T`
a: Fulfilled

q: Threshold query (protein stability index >= 4) on `Y7Q`
a: Fulfilled

q: Threshold query (protein stability index >= 4) on `R11F`
a: Not fulfilled

q: Threshold query (protein stability index >= 4) on `E12G`
a: Fulfilled

q: Threshold query (protein stability index >= 4) on `V3T`
a: Fulfilled

q: Threshold query (protein stability index >= 4) on `R6I`
a: Not fulfilled

q: Threshold query (protein stability index >= 4) on `G2M`
a: Not fulfilled
